Test system: MIA PaCa-2 cells
Test: In-vitro anti-proliferative activity in combination with gemcitabine on MIA PaCa-2 cells
Assay type: cell-based
Settings: 72 h, with 20 nM gemcitabine, read-out: in combination with 20 nM GMC IC50
pIC50: −log10 of the molar value.
RECORDED METRIC: pIC50

Guide cases for pIC50, answers given:
• CN1CCc2ccc(Nc3ncc(C(N)=O)c(Nc4cccc(N=S(C)(C)=O)n4)n3)cc2C1 = < 7.00
• CN1CCc2ccc(Nc3ncc(S(C)(=O)=O)c(Nc4cccc(N=S(C)(C)=O)n4)n3)cc2C1 = < 7.00
• CNC(=O)c1cnc(Nc2ccc3c(c2)CN(C)CC3)nc1Nc1cccc(N=S(C)(C)=O)n1 = < 7.00

Fill in the blank: the reported pIC50 of CN1CCc2c(cc(Nc3ncc(C#N)c(Nc4cccc(N=S(C)(C)=O)n4)n3)cc2-c2cc[nH]n2)C1 is ____.
< 7.00
